- Test system: M14
- protocol description: NCI tumour cell line growth inhibition, 48 h
Active and inactive are the calls of the source. Cut-off read from the data, not from the text of the source: active = GI50 up to about 1.1 µM and inactive = higher.
property: GI50

Example entries begin here.
molecule="[O-][N+]1=C2CCC/C(=N/O)C2(O)C2CCCCC21N1CCOCC1 (stereo not given)" value_measured="> 100 µM (inactive)"
molecule="COC(=O)C(NC(=O)c1ccccc1)C(c1c(O)cc(O)cc1O)P(=O)(OC)OC (stereo not given)" value_measured="48.8 µM (inactive)"
molecule=CCCCCCCCCCCC(=O)CC(=O)c1c(O)cccc1O value_measured="18 µM (inactive)"
molecule=CCCCCCCCCc1cc(=O)c2c(O)cc(O)cc2o1 value_measured="18.1 µM (inactive)"

For the 3 molecules below, give their GI50 values.
1. N#CCCN(CCC#N)c1ccc(C(=N/c2ccc(Cl)cc2)/N=N/c2ccc(Cl)cc2)cc1
2. Cc1cnoc1NS(=O)(=O)c1ccc(Nc2nnc(/C=C/c3c(O)ccc4ccccc34)c(=O)n2N)cc1
3. CC(C)(C)C1=CC(=C2C(=O)C(=O)c3ccccc3C2=O)C=C(C(C)(C)C)C1=O

A.
21.5 µM (inactive)
25.9 µM (inactive)
37.5 µM (inactive)

For the 3 molecules below, give their GI50 values.
1. O=C(c1c(Cl)cc(Cl)cc1Cl)N(Cc1cccnc1)C(=S)N(Cc1cccnc1)C(=O)c1c(Cl)cc(Cl)cc1Cl
2. CCCCNC(=S)Nc1nc(C(=O)NNC(=S)NC2CCCCC2)cs1
3. CC(=O)Nc1ccc(C(=O)NN2C(=O)C(Cl)C2c2ccccc2)cc1 (stereo not given)

A.
["4.82 µM (inactive)", "> 100 µM (inactive)", "> 100 µM (inactive)"]

---

- Tested on: SF-295
- protocol description: NCI tumour cell line growth inhibition, 48 h
The source made the active and inactive calls. No stated cut-off is given here; in the data, active = GI50 up to about 1.1 µM and inactive = higher.
Assignment: determine reported GI50 for the given compounds.

Example entries begin here.
compound="CC1CCC2(NC1)OC1CC3C4CC=C5CC(OC6OC(CO)C(OC7OC(C)C(O)C(O)C7O)C(O)C6OC6OC(C)C(O)C(O)C6O)CCC5(C)C4CCC3(C)C1C2C (stereo not given)" property=GI50 value_measured="2.08 µM (inactive)"
compound="C=CCCCCCCCCCOC1C=CC(OC(C)=O)C(COC(C)=O)O1 (stereo not given)" property=GI50 value_measured="72.9 µM (inactive)"
compound=CC[C@@H]([C@H](O)c1ccccc1Cl)[N+](=O)[O-] property=GI50 value_measured="> 100 µM (inactive)"

For the 2 compounds below, give their GI50 values.
1. COC(=O)/C(C#N)=C1\CCC(O)N1 (stereo not given)
2. C=C(C(N)=O)c1ccc([N+](=O)[O-])o1

A.
["> 100 µM (inactive)", "42 µM (inactive)"]

---

- System: LXFL 529
- protocol description: NCI tumour cell line growth inhibition, 48 h
Calls of active or inactive are those of the source. Cut-off read from the data, not from the text of the source: active = GI50 up to about 1.1 µM and inactive = higher.
property: GI50

Example entries begin here.
molecule=COc1cc2c(c(OC)c1OC)-c1ccc(SC)c(=O)cc1[C@@H](NCc1ccc(F)cc1)CC2 property=GI50 value_measured="< 0.0075 µM (active)"
molecule=C[C@@]12[Se]c3ccccc3[C@]1(C)[Se]c1ccccc12 property=GI50 value_measured="> 100 µM (inactive)"
molecule=Cc1ccc(NC(=O)CCc2cc(C(C)(C)C)nc(S)n2)cc1C property=GI50 value_measured="> 100 µM (inactive)"
molecule="CC(C)NC(C)C(C)c1ccccc1 (stereo not drawn)" property=GI50 value_measured="> 100 µM (inactive)"
molecule=CC/N=C(/C#N)NCC property=GI50 value_measured="> 100 µM (inactive)"

For the 6 molecules below, give their GI50 values.
1. C=CCN1C(=O)C(=O)N(CC=C)C(=O)C1=O
2. NC1CCCCC1.O=C(O)C(CP(=O)(O)O)=C(Cl)Cl
3. C[N+]1(CCNP(=S)(NCC[N+]2(C)Cc3c(ccc4c3OCO4)C3C2c2cc4c(cc2C[C@@H]3O)OCO4)NCC[N+]2(C)Cc3c(ccc4c3OCO4)C3C2c2cc4c(cc2C[C@@H]3O)OCO4)Cc2c(ccc3c2OCO3)C2C1c1cc3c(cc1C[C@H]2O)OCO3 (stereo partly drawn)
4. COc1ccc(CNc2nc3ccc(C(F)(F)F)cc3nc2-c2ccccc2)cc1OC
5. O=C(/C=C/c1ccccc1)CC(=O)CCC(=O)Nc1ccc(Cl)cc1
6. O=C(CCC(=O)Nc1ccc(Cl)cc1)CC(=O)c1ccc2ccccc2c1

A.
1: > 100 µM (inactive); 2: > 100 µM (inactive); 3: < 0.00191 µM (active); 4: 43.4 µM (inactive); 5: 6.75 µM (inactive); 6: > 100 µM (inactive)

For the 6 molecules below, give their GI50 values.
1. O=C1C[C@@H]2[C@@H](C=CC23CCCC3)N1O
2. COC(=O)c1nn(-c2ccccc2)c(=O)cc1N=[N+]=[N-]
3. Fc1cccc2c1cc1ccc3cccc4ccc2c1c34
4. CN(C)CCNC(=O)c1cccc2c(Nc3ccc(S(N)(=O)=O)cc3)c3ccccc3nc12
5. CC(=O)C1=C(O)C2C3c4c[nH]c5cccc(c45)CC3C(C)(C)N2C1=O (stereo not drawn)
6. C/C(=C1/CCCC2(N=NCC2c2ccccc2)C1=O)c1ccccc1 (stereo not drawn)

A.
1: > 100 µM (inactive); 2: > 100 µM (inactive); 3: > 100 µM (inactive); 4: 0.333 µM (active); 5: 78.3 µM (inactive); 6: 17.3 µM (inactive)

For the 4 molecules below, give their GI50 values.
1. CN(C)CCC[N+]1=Nc2cccc3cccc(c23)N1
2. O=C1NC2=C(CCCCC/C2=N\O)C12CCCCCC2
3. CC(SC(=S)Nc1cccc(F)c1)C(=O)O (stereo not drawn)
4. Cc1ccc(C2=NO[C@@H]3C(=O)N(c4ccc(Cc5ccc(N6C(=O)[C@H]7C(c8ccc(C)cc8)=NO[C@H]7C6=O)cc5)cc4)C(=O)[C@H]23)cc1

A.
["49.8 µM (inactive)", "> 100 µM (inactive)", "17.9 µM (inactive)", "> 100 µM (inactive)"]

For the 2 molecules below, give their GI50 values.
1. CCCCCCCCCCCC(=O)CC(=O)c1c(O)cccc1O
2. CC#COP(=O)(OCC)OCC

A.
18.2 µM (inactive)
> 100 µM (inactive)
